# Test description: Protective ability against MPP^+ induced apoptosis of neurons (WST-1 cell viability)
# Assay type: cell-based
# Particulars: human, MPP^+ 1 mM alone, read-out: Cell viability % compared to control
Readout type: viability at 44 h, 1 mM (%)
Write the value in % as a bare number.

Prompt line: # input molecule: C[n+]1ccc(-c2ccccc2)cc1 [MPP^+, 1-methyl-4-phenylpyridinium iodide] ; wanted: its viability at 44 h, 1 mM
Response line: 53
